Sourced from ChEMBL document CHEMBL5608213

# test_system: Tyrosyl-DNA phosphodiesterase 1 (Homo sapiens)
# Sequence (Q9NUW8 whole entry): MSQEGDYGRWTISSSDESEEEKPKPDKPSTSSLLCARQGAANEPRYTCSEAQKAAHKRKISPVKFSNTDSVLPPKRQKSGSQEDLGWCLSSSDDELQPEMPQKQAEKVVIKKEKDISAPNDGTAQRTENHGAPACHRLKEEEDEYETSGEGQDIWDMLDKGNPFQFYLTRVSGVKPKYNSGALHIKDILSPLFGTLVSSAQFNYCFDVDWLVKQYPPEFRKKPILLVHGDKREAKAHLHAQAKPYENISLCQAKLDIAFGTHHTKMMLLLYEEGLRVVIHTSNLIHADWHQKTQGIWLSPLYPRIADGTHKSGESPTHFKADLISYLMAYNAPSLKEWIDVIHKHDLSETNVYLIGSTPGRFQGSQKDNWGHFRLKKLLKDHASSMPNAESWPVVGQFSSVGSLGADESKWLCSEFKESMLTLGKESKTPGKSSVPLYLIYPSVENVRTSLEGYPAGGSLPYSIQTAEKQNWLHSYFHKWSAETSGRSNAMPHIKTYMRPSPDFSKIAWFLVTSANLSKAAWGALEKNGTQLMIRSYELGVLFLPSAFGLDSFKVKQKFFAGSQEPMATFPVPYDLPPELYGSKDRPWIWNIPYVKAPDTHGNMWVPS
property: pIC50
FYI, pIC50 means -log10 of a concentration in mol per litre.

Some compounds with recorded pIC50:
| compound | test_system | pIC50 |
| --- | --- | --- |
| CC(C)[C@@H]1CC[C@]2(COC(=O)c3ccccc3)CC[C@]3(C)[C@H](CC[C@@H]4[C@@]5(C)/C(=N/O)C[C@@H](O)C(C)(C)[C@@H]5CC[C@]43C)[C@@H]12 | Tyrosyl-DNA phosphodiesterase 1 (Homo sapiens) | 5.54 |
| CC(C)[C@@H]1CC[C@]2(CO)CC[C@]3(C)[C@H](CC[C@@H]4[C@@]5(C)/C(=N/O)C[C@@H](O)C(C)(C)[C@@H]5CC[C@]43C)[C@@H]12 | Tyrosyl-DNA phosphodiesterase 1 (Homo sapiens) | 5.54 |
| CC(C)[C@@H]1CC[C@]2(COC(=O)c3ccccc3)CC[C@]3(C)[C@H](CC[C@@H]4[C@@]5(C)/C(=N/O)[C@H]6O[C@H]6C(C)(C)[C@@H]5CC[C@]43C)[C@@H]12 | Tyrosyl-DNA phosphodiesterase 1 (Homo sapiens) | 5.70 |
| CC(C)[C@@H]1CC[C@]2(COC(=O)c3ccccc3)CC[C@]3(C)[C@H](CC[C@@H]4[C@@]5(C)[C@@H](O)[C@H]6O[C@H]6C(C)(C)[C@@H]5CC[C@]43C)[C@@H]12 | Tyrosyl-DNA phosphodiesterase 1 (Homo sapiens) | 5.29 |
| CC1(C)CC[C@]23CC[C@]4(C)[C@H](CC[C@@H]5[C@@]6(C)O[C@@H](CC#N)C(C)(C)[C@@H]6CC[C@]54C)[C@H]2[C@H]1OC3 | Tyrosyl-DNA phosphodiesterase 1 (Homo sapiens) | 5.10 |
| CC1(C)CC[C@]23CC[C@]4(C)[C@H](CC[C@@H]5[C@@]6(C)O[C@H](CC#N)C(C)(C)[C@@H]6CC[C@]54C)[C@H]2[C@H]1OC3 | Tyrosyl-DNA phosphodiesterase 1 (Homo sapiens) | 5.44 |

Form field, pIC50 with Tyrosyl-DNA phosphodiesterase 1 (Homo sapiens), item CC(C)[C@@H]1CC[C@]2(COCc3ccccc3)CC[C@]3(C)[C@H](CC[C@@H]4C(=O)C(C(C)(C)[C@H](CC#N)OC(=O)Cl)CC[C@]43C)[C@@H]12 (stereo not given in full) : 4.92

Form field, pIC50 with Tyrosyl-DNA phosphodiesterase 1 (Homo sapiens), item C=C1[C@H]2CC[C@@H]3[C@H]4[C@H](C(C)C)CC[C@]4(COC(=O)c4ccccc4)CC[C@@]3(C)[C@]2(C)CC[C@@H]1C(C)(C)[C@@H]1O[C@H]1C#N : 5.10

Form field, pIC50 with Tyrosyl-DNA phosphodiesterase 1 (Homo sapiens), item CC(C)[C@@H]1CC[C@]2(CO)CC[C@]3(C)[C@H](CC[C@@H]4[C@@]5(C)O[C@H](CC#N)C(C)(C)[C@@H]5CC[C@]43C)[C@@H]12 : 6.00
